Values compiled from paper PMC6321168.

assay: Fecal excretion study in rats after oral NS, SF or CNS (LC–MS/MS); type: in vivo; settings: rat feces, oral NS 60 mg/kg, 120 h
Measured endpoint: Accumulative excretion percentage

### Prompt Specify Accumulative excretion percentage for CC(C)=CCC[C@](C)(O[C@@H]1O[C@H](CO)[C@@H](O)[C@H](O)[C@H]1O)[C@H]1CC[C@]2(C)[C@@H]1[C@H](O)C[C@@H]1[C@@]3(C)CC[C@H](O)C(C)(C)[C@@H]3[C@@H](O[C@@H]3O[C@H](CO)[C@@H](O)[C@H](O)[C@H]3O[C@@H]3O[C@@H](C)[C@H](O)[C@@H](O)[C@H]3O)C[C@]12C [ginsenoside Re] and stop.
### Response 7.187±2.278%

====

The following compounds are shown together with reported concentration at 4 h values.
assay: Urinary excretion study in rats after oral NS, SF or CNS (LC–MS/MS); format: in vivo; conditions: male, Sprague Dawley, rat, urine, oral, oral CNS 110 mg/kg, 4 h
Write down the numeric answer in ng/mL and omit the unit.

// solved cases for concentration at 4 h follow
INSERT INTO measurements (compound, measured_endpoint, value_observed) VALUES
  ('CC(C)=CCC[C@](C)(O[C@@H]1O[C@H](CO[C@@H]2O[C@H](CO)[C@@H](O)[C@H](O)[C@H]2O)[C@@H](O)[C@H](O)[C@H]1O)[C@H]1CC[C@]2(C)[C@@H]1[C@H](O)C[C@@H]1[C@@]3(C)CC[C@H](O[C@@H]4O[C@H](CO)[C@@H](O)[C@H](O)[C@H]4O[C@@H]4O[C@H](CO)[C@@H](O)[C@H](O)[C@H]4O)C(C)(C)[C@@H]3CC[C@]12C [ginsenoside Rb1]', 'concentration at 4 h', 27),
  ('CC(C)=CCC[C@](C)(O[C@@H]1O[C@H](CO)[C@@H](O)[C@H](O)[C@H]1O)[C@H]1CC[C@]2(C)[C@@H]1[C@H](O)C[C@@H]1[C@@]3(C)CC[C@H](O)C(C)(C)[C@@H]3[C@@H](O[C@@H]3O[C@H](CO)[C@@H](O)[C@H](O)[C@H]3O)C[C@]12C [ginsenoside Rg1]', 'concentration at 4 h', 1690),
  ('CC(C)=CCC[C@](C)(O[C@@H]1O[C@H](CO)[C@@H](O)[C@H](O)[C@H]1O)[C@H]1CC[C@]2(C)[C@@H]1[C@H](O)C[C@@H]1[C@@]3(C)CC[C@H](O[C@@H]4O[C@H](CO)[C@@H](O)[C@H](O)[C@H]4O[C@@H]4O[C@H](CO)[C@@H](O)[C@H](O)[C@H]4O)C(C)(C)[C@@H]3CC[C@]12C [ginsenoside Rd]', 'concentration at 4 h', 9);

# evaluate next
### Prompt Return value of concentration at 4 h for input CC(C)=CCC[C@](C)(O[C@@H]1O[C@H](CO)[C@@H](O)[C@H](O)[C@H]1O)[C@H]1CC[C@]2(C)[C@@H]1[C@H](O)C[C@@H]1[C@@]3(C)CC[C@H](O)C(C)(C)[C@@H]3[C@@H](O[C@@H]3O[C@H](CO)[C@@H](O)[C@H](O)[C@H]3O[C@@H]3O[C@@H](C)[C@H](O)[C@@H](O)[C@H]3O)C[C@]12C [ginsenoside Re] , no commentary.
### Response 70
